Data provenance: the domain aggregation screens of Martell et al. (2025)

# soluble fraction (log2) annotations
# testProtocol: soluble fraction after stress (log2 fold change); higher = more stays soluble; pooled small domains, quantitative proteomics
# assaySetup: stress: 50 degC

- polymerSequence: "HMNNGTDGLTTRLRRAILAGQYTFKERLPSERQLAEHFNTSRGTVRKVLQRLTTMNLVEQRAGSGTYVRYG"
  soluble fraction (log2): -0.2
- polymerSequence: "HMNNDFIVKSTDSHKVNLRSQPDTHADIIKRLDDHTIVEKLKTVRKNWYLVQLKDTTTQGYVHKSQLERV"
  soluble fraction (log2): -0.0413
- polymerSequence: "HMVYFAKNIRHLRRLRGMSQELLAAELDITRARLGAYEESRSEPPLHLLIKISEFFKLPVDIIVKNDLTKS"
  soluble fraction (log2): -3.66
- polymerSequence: "HMDSGFMRTTQSYTVARLAEIFRLSGEDYLAVLREYDGWYQDLTSTKDLIRKGSDVPVPEGV"
  soluble fraction (log2): -1.61
- polymerSequence: "HMQDELSSSVIEEAVVVLLLRAANIDGKKDEQEIEAIKRLIIQQFNYDEEKADILITSASEK"
  soluble fraction (log2): -0.218
- polymerSequence: "HMKVTRWEDTGMKPAEAQEWQHYDFKPQEAMNWRDAGFVPLVARTWSDKGFDASEAQAWRDSVRNS"
  soluble fraction (log2): -0.19
- polymerSequence: "HMWNPVLVVRGDFPKDLATTLLKMIFAQKEALNPHILFQNLLRTDNITFRESYPYHSASKTMFRF"
  soluble fraction (log2): -0.148
- polymerSequence: "HMYYSERILTILEERGISPYRVSKETGISQSVFSNWKRKPTSRITAANLERLADYLGLPVEVLTG"
  soluble fraction (log2): -3.45

* * *

# testProtocol: soluble fraction after stress (log2 fold change); higher = more stays soluble; pooled small domains, quantitative proteomics
# assaySetup: stress: 50 degC

- polymerSequence: "HMDVNHVIIDHKGNSIQAIIDSIDLDNVYYQSKIKKESEVIDIDKVYFIFNDFDRVYHYDWSYYENL"
  soluble fraction (log2): -0.138
- polymerSequence: "HMKLEEITIIVPSLRLDNFVSDLARTSRSKAVQIIDSERVFINGQNETKASKQVKLGDVITSA"
  soluble fraction (log2): -0.277
- polymerSequence: "HMTYKPAADFKPSDTSSLKEGMKVEHPKFGFGTVMKMEEVGTERKARINFADFGEKTLLLSFAKLKIHEN"
  soluble fraction (log2): 0.0858
- polymerSequence: "HMRQTGWVTADSLNVRARPSLQAERVEKVTYGQQVQIMFKQGQWYQIATENGKIGWVSSEYIAAVSP"
  soluble fraction (log2): -0.0654
- polymerSequence: "HMEDPRVTEIKNLQQDLAKKFKPTQGPASASDAVERVTAITTVMTKVAALPEDLRSEAMQPGKKM"
  soluble fraction (log2): -0.322
- polymerSequence: "HMNIEIIEVQEESTPSEISKIISTESTKIIEDLLNLGVMASLETPLKNQDIEKLLEGYGYIVDIKP"
  soluble fraction (log2): -0.372
- polymerSequence: "HMTMNYYDILSIKRDATLEEIQKAYKEKSFQFHPDFNKGISDDSMFRIIKEAYETLSDTEKRNQYDASLNK"
  soluble fraction (log2): 0.232
- polymerSequence: "HMEELPVLHLKHVVVEGESLWKLAEQYLNDGTRWQEIYMLNRENISNPDLIREGQELNIQFLQGE"
  soluble fraction (log2): -0.574

* * *

# testProtocol: soluble fraction after stress (log2 fold change); higher = more stays soluble; pooled small domains, quantitative proteomics
# assaySetup: stress: 50 degC
# soluble fraction (log2) annotations

- polymerSequence: "HMLAYQRTYEKILEDLRNDVYPVNSLLPPEPKLEEIYHVSRTTVRRAIAQLADEGYVKVKQGYGTVVLKN"
  soluble fraction (log2): -0.339
- polymerSequence: "HMNNIIYLIANKLDVGKRLDQFITIRTEFSRQRVINLIEDGYVKLNNKIINLKKYKIKGDEKIEITIPEIR"
  soluble fraction (log2): -0.542
- polymerSequence: "HMNPMRYLVVPSQETETWKEYLVSKEWLERKYRIETEGDNRAIPLSNLFPKIVPIELSNLEIIEKEAFS"
  soluble fraction (log2): -0.24
- polymerSequence: "HMKEPIYQTILSALILELNTNHFRKNDPFYSESELRKKYQVSSTTVVRVLNMLADQGYIYRIQGKGSFVSK"
  soluble fraction (log2): -2.37
- polymerSequence: "HMDNRLFKMLYYLLDKERATAPELAAEFEVSTRTIYRDVEALSSAGIPIYAEPGRNGGIYLLQD"
  soluble fraction (log2): -2.21
- polymerSequence: "HMRIWTISDLYKNVEDKKVSLAVFSEDNDSNKVNVLDINGEEHSVNLLKADLPTLVDLFRKNDVRFAVRSN"
  soluble fraction (log2): 0.12
- polymerSequence: "HMSLSDDIAQTLRQLGFDRDVSETLANDVLPAMPTRQDVIDLLGTLGIEKHVAADFANFVVLN"
  soluble fraction (log2): -0.723
- polymerSequence: "HMGKPAGLIRELGNHPEDEKPVTLNNGRFGPYVKHGKVMASLTKADSPDDITFDRAIELIAIKAEKMAAKG"
  soluble fraction (log2): 0.184
- polymerSequence: "HMSKHATLLEALADLSVKLKPHSQLPSERALSEEYGVSRMTLRRAIDVLQARGYIYSVPSKGLFVSEP"
  soluble fraction (log2): -1.74
- polymerSequence: "HMNNIGSKIKSAKILNNLDDNQLSEITGIDKLQLRSIQDGQVNPTKMELEIISKALKLPTNYFTK"
  soluble fraction (log2): -0.0222
- polymerSequence: "HMYKNLRAFRESLGMTQKDFAASLSIGLSTYNGYEVGAREPKSDFWIAVARKYGVTIDYLMGFSDDPHK"
  soluble fraction (log2): -1.11
- polymerSequence: "HMKMLPAEVLTHPAVVALIERGAPTGSITPEEVRQASEDAAVEPRHLKALLAHLSALGISVQIP"
  soluble fraction (log2): -0.217
- polymerSequence: "HMRKTLASTAYDSIKAGIVSGEINNNLLLSENTLAKILNMSRTPIREAIKRLEAESYLKSVDGVGLIVQE"
  soluble fraction (log2): -0.211
- polymerSequence: "HMGSGLAAAEKIRKAHPEIKIVVATSLIDTQVLARAKAVGADSLWYKDGDEGTLMQVVRRTMAGDHIFP"
  soluble fraction (log2): -0.00704
- polymerSequence: "HMKSSLAKNLETLMQERQISQTRLSKISGVSQSYIFKILNDQIKKPSLDTLEKLATALDSTVAQLNH"
  soluble fraction (log2): -0.00953
- polymerSequence: "HMSVPEDLYFRELEVEGNKVRISGIASTNNRVSALMRNFDQSEWFRDPSLIKVESKSPGVNEFEIVMTRI"
  soluble fraction (log2): 0.0509
- polymerSequence: "HMVINQRKLNLLSIYSSGSEKRAIILFPTGQTKFVKVGDTLDGGRVAAIGTSEIRYLKGGNNLVLRIPG"
  soluble fraction (log2): -2.63

* * *

# soluble fraction (log2) annotations
# testProtocol: soluble fraction after stress (log2 fold change); higher = more stays soluble; pooled small domains, quantitative proteomics
# assaySetup: stress: 50 degC
readoutLabel: soluble fraction (log2)

- polymerSequence: "HMDYAQAQRQAESAIALRPDVERLRLLLIYALQKQGKLREAEQAAADAIKSGLDTPALRQARANLRP"
  recordedNumber: -0.264
- polymerSequence: "HMNKFRVGDEVEIVKLDKTIQHFGGEEVLSPVGTKTYITYVDVTGKEIEIDKDIYSYHADDLTLV"
  recordedNumber: 0.147
- polymerSequence: "HMSLTGFYNLTFKQADRLSVIDEAGEEVYKQAIAMGSTTKTIDLSALNAGVYFIRIYNGEVIAQEKIVLN"
  recordedNumber: -1.25
- polymerSequence: "HMTRVDALDQLAAIRFSSHIFAEDQDLRMVVVDGQRIGEGDIVRDEIRLEQITETGVIFEYQGERFPIDV"
  recordedNumber: -1.42
- polymerSequence: "HMSKMVEMSQEKSREKVARVKIEIQKMLDRKERVTVSGLERATGFSNSFFYRNEEVNQAVKEAQLKQ"
  recordedNumber: 0.0985
- polymerSequence: "HMVDQVDKDRFLEALTQLGGSAGNVRLRETLQWEEEVYVIIKDALVKSGTILTGRGRGGSVLLASA"
  recordedNumber: -1.12
- polymerSequence: "HMGSDQEAAMARQDRLSTLVDYVVERGSVHVDDIVADLGVSPATVRRDLDALAAQQLIIRTRGGATANHT"
  recordedNumber: 0.0263
- polymerSequence: "HMGQYSTTLDKIENSLFGFTYSNEAENTRINRIENKVYGKTSTSQTSTRIAKLKKDLSVDEMG"
  recordedNumber: 0.0362

* * *

# testProtocol: soluble fraction after stress (log2 fold change); higher = more stays soluble; pooled small domains, quantitative proteomics
# assaySetup: stress: 50 degC
If the reported soluble fraction (log2) equals or exceeds -0.1, assign criterion met. If not, assign criterion not met.

- polymerSequence: "HMDSNFNYELVGFRLDDMGLNSSVIVKRNNQEFVIQKGDLLENKYLLNSVTKKNINFSYLGKNYQI"
  cat: "criterion not met"
- polymerSequence: "HMVTVQEGETLSAIAARSGVSVKDLVRANEIRNPDSIQEGQVLFVP"
  cat: "criterion met"
- polymerSequence: "HMKNETFAITSEDAGKRLDVWLTNILGDYSRSYVERLVEQGNVTVGGKTVKAGYKLKAGDSVQVSIPGPK"
  cat: "criterion met"
- polymerSequence: "HMVAGPDEPLSDREQGVLDLLAEGLSNKAISKQLGISVATVKSHLSNIYGKLQAENRMQAVARARELGLM"
  cat: "criterion met"
- polymerSequence: "HMEPELSVDMKPLDGLLLAIKKELQAAQMYTRLARASADAEQKMVFEQLANMEKGHKARLEDIYT"
  cat: "criterion met"
- polymerSequence: "HMPPPTLVESAYNHLKADIISSYLKPDEKINLKDLSQRYQVSETPIKQALNRLISEGLIISVPRKGMWVH"
  cat: "criterion met"
- polymerSequence: "HMKIPYGELIKLLNAAAPKLQDAQGWMDMEAAGQFIGSRWSYLDYGFKDWPDSFKTVHGLEIQGQRMRLA"
  cat: "criterion not met"
- polymerSequence: "HMEILNYVVSDGQSGIRIDRYLSDSNEDLSRSYIQKLLKEQKVTVQGTFVKANYKVQAGDVITVEVPDMA"
  cat: "criterion not met"
- polymerSequence: "HMINIFKVKKAMEEIFASEWEDSPYTDQKISQILWSRGFSVSTGLVEKYRGQMGVPDANSRLNLN"
  cat: "criterion not met"
- polymerSequence: "HMGLWWTEAERELVKTTIEQLYKDTNIAEPVDSKNLRASIPALKAMRTGLSAENQARVDTLLGALQV"
  cat: "criterion not met"
- polymerSequence: "HMASPKEALWRSLAEEPDTWWDNRERKSQPGANPRSPDFKHKESGEALWIESRDTPTWVLETL"
  cat: "criterion met"
- polymerSequence: "HMANDNFPLKLGSKGPRVLQLKTMLIQSLSNDALPKGRSSDAFDSELEALLSRNNLPTVIDETNFRVLTK"
  cat: "criterion met"
- polymerSequence: "HMEITTEDIAAQVASWIVRLSEDLTSTDRAALQIEFEQWQQTDSRRAEIAHKMLSLIGQAEQLRKT"
  cat: "criterion not met"
- polymerSequence: "HMNETLKQIRINALQYSEKDMATKLGLPLSEYKEIENDKPLNFTLLIRLSQAVGKTIDDLLNAQ"
  cat: "criterion met"
- polymerSequence: "HMDTSAHEVLSAIRSIIEDEDKRHPLSDEAITSRLSQQGYDIARRTVAKYRERLGLPVARLRRE"
  cat: "criterion met"
- polymerSequence: "HMLEYIEPRTAVQIHGIKAKPELNGKRGMVMGYAPERMRYRVRIDVGEGTGGKESEEVYLKPENVIAVK"
  cat: "criterion met"
- polymerSequence: "HMSPLALLTPRELDILRAMTAGASNKEIARQFAIAETTVKIHVQHILRKLDVTTRVHAAVMASESGL"
  cat: "criterion not met"
- polymerSequence: "HMRAVPTKLAPFVEVLKAMLEADGHRPKAQRRTAKALHLELISRGYAGGYTRLTDYIRDWRQQQG"
  cat: "criterion not met"
- polymerSequence: "HMNIIHNPSKNFIESDLNDLKEGMEIEHKKFGYGLIKSIDKTQNHQKAVVNFKLVGEKTLLLSFARLRIV"
  cat: "criterion not met"
- polymerSequence: "HMGLTRRAQLEVADANLKRLYPGMHQSWVTAIAEYLHSSYWRYINSLEPEYAASIQRVYEQHIDAM"
  cat: "criterion met"
- polymerSequence: "HMLTIEEYLTQLKKLMKDRDAATVRDALSDAEEHLRNAMAGEDPSRLDGIIEEYGSPEEIAAAYKIMEEHT"
  cat: "criterion met"
- polymerSequence: "HMREEMYGLIGFITTSEVTDTFGQMEIKLENEPEMRINVRTNPGESLARGDAAKIISFNNSNGTFLVELTK"
  cat: "criterion not met"
- polymerSequence: "HMSGAQIQQLLESRAPQPGMNPDMIVRRKTYMNNVFNALKGALLRVANGSSPEEVKTEVDAAIQVDPDKL"
  cat: "criterion met"
- polymerSequence: "HMTFDWAAYEISEKEIRVMSLVAEGFSNKEIAQELFLSEGTVRNYISNILEKLGLRDRTQLAVHYLKAV"
  cat: "criterion not met"
- polymerSequence: "HMQKVPDAFKAEQVQTLITRLGVSRAELARTLDVSLSTVNKWASGAVEPKGSALVLLKVLWMHGFKAL"
  cat: "criterion not met"
- polymerSequence: "HMAPQQARAAKTRVKLLDAAATVVRRDGIQAMTLARVAEEAGVSKGGLLHHFGSKEELVTGMLEQ"
  cat: "criterion not met"
- polymerSequence: "HMKKRDANSQGTRLILFYMLQRLHTEYKLQGFVTYNQRRSFREIYDAYHALGGNGFGTAMWEEVKELDLK"
  cat: "criterion not met"
- polymerSequence: "HMATYETEVISGVNLRSAPNTSASVYRLLSKGEDIHVIQKVNDYWLKVQTKDGKIGYISASSKYTNYIA"
  cat: "criterion not met"
- polymerSequence: "HMGADSFTGYTPIHKIDNPSDGINDGASYVVYFQKDGTDPTEFYKAVNANASTLAQLTSGTEYDLASSKKL"
  cat: "criterion met"
- polymerSequence: "HMTKIDYSINQIYSLRNIENITIVLKDKRSFTGKILKIYWQNGSKIILFTTETRNYKFKEYEISEIYKS"
  cat: "criterion not met"
- polymerSequence: "HMPKSKTPDDAAEEFRTAFSALDMDGKVTVKDMAEYMGVIDKTVYARLKKMGDEFTLDKGVITKKT"
  cat: "criterion met"
- polymerSequence: "HMTTIPAGRQQYILSLIRREGTVTVSRLAQELEVSELTIRRDLDQMAARNLVERTHGGATERR"
  cat: "criterion not met"
- polymerSequence: "HMYMLYQQLADSLRDKIYEGTYTFGDKIPSERTLAATFGISHLTVRKALAILEEEGLLDRRQGNGTFVRV"
  cat: "criterion not met"
